Hello, the source for this data is PubChem BioAssay (NCI), in case you need it.

Kindly state TGI for each of the entries shown.
tested on: DLD-1 colon; experiment: NCI tumour cell line growth inhibition, 48 h
Just the number in µM, nothing appended.

INPUT: Which TGI value belongs to "O=C(NNC(=O)c1cc(/C=C/c2cccc([N+](=O)[O-])c2)[nH]c(=S)n1)Nc1ccc(Cl)cc1" ?
OUTPUT: 47.8

INPUT: Please report the recorded TGI for CCC[CH2][Sn]([CH2]CCC)([O]C(=O)C1CCC(=O)N1)[O]C(=O)C1CCC(=O)N1 (stereo not given) .
OUTPUT: 1.52

INPUT: What does the record list as TGI for "Cn1c2c(c3ccccc31)CCN(CCCCN1CCN(c3cccc(Cl)c3)CC1)C2=O" ?
OUTPUT: 25.1

INPUT: Suppose we examine the compound O=C1C2c3[nH]c4ccccc4c3[C@@H]3CCCCC3C2C(=O)N1c1ccccc1 (stereo not given in full) ; what TGI value has been reported?
OUTPUT: 92.4

====

test system: HOP-92 NSCLC; test: NCI tumour cell line growth inhibition, 48 h
# label = Met if TGI >= 8 µM else Not met

INPUT: # bool: TGI of "Cc1cc(OCC(=O)N/N=C/C(Br)=C/c2ccccc2)nc(SCC(=O)N/N=C/C(Br)=C/c2ccccc2)n1" >= 8 µM
OUTPUT: Met

INPUT: Is reported TGI greater than or equal to 8 µM here: CC1OC(OC2C(O)COC(OC3C(C)OC(OC4C(OC(=O)[C@]56CCC(C)(C)C[C@@H]5C5=CCC7[C@@]8(C)C[C@H](O)[C@H](OC9OC(CO)C(O)C(OC%10OC(CO)C(O)C(O)C%10O)C9O)[C@@](C)(CO)[C@@H]8CC[C@@]7(C)[C@]5(C)CC6)OCC(O)C4O)C(O)C3O)C2O)C(O)C(O)C1O (stereo partly drawn)
OUTPUT: Met

INPUT: Determine whether measured TGI meets or exceeds 8 µM for "O=C(O)CCCOc1cc(-c2ccccc2F)nc2cc3c(cc12)OCO3"
OUTPUT: Met

INPUT: Check this compound for TGI at or above 8 µM: "O=C(c1cccc(C(=O)c2ccc3c4c(cccc24)C(=O)N(c2ccccc2)C3=O)c1)c1ccc2c3c(cccc13)C(=O)N(c1ccccc1)C2=O"
OUTPUT: Met

INPUT: State whether the measured TGI reaches 8 µM, counting equality as reaching it, for "O=C(/C=C/c1ccc(O)c(O)c1O)OCCc1ccccc1"
OUTPUT: Met

INPUT: Exam item: decide whether the reported TGI for "CC(C)C(/C=C/c1ccc(Br)cc1)=N\NC(N)=O" is at least 8 µM.
OUTPUT: Met

INPUT: Item "Cn1c(=S)c2[nH]c(SCCN3CCCC3)nc2n(C)c1=O" with TGI of 8 µM or above?
OUTPUT: Met

INPUT: Is the recorded value of TGI equal to or greater than 8 µM for this compound? "O=C(OCc1ccc2c(Cl)cc(Cl)c(O)c2n1)c1cc2ccccc2[nH]1"
OUTPUT: Not met

INPUT: Test whether the compound "Cc1ccc(/C=C/C(=O)c2cc(CN(C)C)c(O)c(CN(C)C)c2)cc1" records TGI of 8 µM or higher.
OUTPUT: Met

INPUT: Determine whether this compound has TGI no lower than 8 µM: "Cc1c(C)c2c(c(N)c1C#N)C(=O)N(CCN1CCNCC1)C2=O"
OUTPUT: Met

INPUT: Quick check: does "Cn1c2c(c3ccccc31)CCN(CCCCN1CCN(c3cccc(Cl)c3)CC1)C2=O" have TGI greater than or equal to 8 µM?
OUTPUT: Met

INPUT: Hello, I need to know if "NC(=O)NC(=O)c1cccc(NC(=O)CBr)c1" has measured TGI not below 8 µM. Thanks!
OUTPUT: Not met

INPUT: Check if TGI >= 8 µM (inclusive). Item: CC(=O)Nc1ccc(C(=O)NN2C(=O)C(Cl)C2c2ccccc2O)cc1 (stereo not drawn)
OUTPUT: Met

INPUT: Reported TGI reaches at least 8 µM for "COC(=O)c1ccccc1/C=C1\Cc2cc(C)c(C)cc2C1=O" ?
OUTPUT: Met

INPUT: Hi, just wondering whether "CCCCn1sc(=O)n(Cc2ccc(CNC(=O)OCc3ccc4c(Br)cc(Br)c(O)c4n3)cc2)c1=O" shows TGI of 8 µM or higher.
OUTPUT: Met

INPUT: Item COc1ccc(/C(=N/NC(N)=O)C(c2ccc(OC)cc2)C2C(=O)Oc3ccccc32)cc1 (stereo not drawn) with TGI of 8 µM or above?
OUTPUT: Met

INPUT: I'd appreciate it if you could say whether "CCOC(=O)Nc1ccc(-c2nc(-c3cccc(OC)c3)c(-c3ccnc(Br)c3)[nH]2)cc1" has TGI at least equal to 8 µM.
OUTPUT: Not met

INPUT: Would you say "O=C(CCN1CCOCC1)Nc1ccc2sc3ccccc3c(=O)c2n1" shows TGI at minimum 8 µM?
OUTPUT: Met

====

system: SNB-19 CNS; experiment: NCI tumour cell line growth inhibition, 48 h
EXPERIMENTAL_ENDPOINT: TGI

INPUT: May I ask what TGI has been recorded for "CN(C[C@@H]1COCCO1)S(=O)(=O)Nc1ccc2ccc3ncc(-c4cnn(C)c4)cc3c(=O)c2c1" ?
OUTPUT: > 100 µM

INPUT: Name the reported TGI value associated with the compound "CCCCC(=O)Oc1ccc2c(C)cc(=O)oc2c1"
OUTPUT: > 100 µM

INPUT: Quick one: TGI of "CC#CCCN(CC#N)Cc1ccccc1" ?
OUTPUT: > 100 µM

INPUT: Which TGI value belongs to "COc1cc(/C=C2/C(=O)N(C(=O)c3ccc(Cl)cc3)N=C2C)cc(OC)c1OC" ?
OUTPUT: > 100 µM

INPUT: Suppose we examine the compound "Cc1ccc2[nH]c3c(ncc4[nH]c5ccccc5c43)c2c1" ; what TGI value has been reported?
OUTPUT: 31.6 µM

INPUT: Tell me the measured TGI of "COc1ccc(-c2c(-c3cc(OC)c4c(c3)OCO4)noc2N)cc1" , please.
OUTPUT: > 100 µM

====

test system: A549 NSCLC; experiment: NCI tumour cell line growth inhibition, 48 h; in the data active = GI50 below about 0.43 µM; inactive = the rest
Just give me one of these, please: 1 (yes) (active), 0 (no) (inactive)

INPUT: Test call for this compound, please: "N#Cc1ccc(C(c2ccc(C#N)cc2)n2cncn2)cc1"
OUTPUT: 0 (no)

INPUT: What did this assay record as the result for "CCCCCCCC(=O)SCC/C=C/[C@@H]1CC(=O)NCc2nc(co2)C2=N[C@@](C)(CS2)C(=O)N[C@@H](C(C)C)C(=O)O1" ?
OUTPUT: 1 (yes)

INPUT: Hey, what did the test say about "Cc1ccc(S(=O)(=O)Cc2nc(-c3ccc(C(=O)NCc4cccnc4)cc3)oc2C)cc1" ?
OUTPUT: 0 (no)

INPUT: Query: recorded result category for "C#CCOc1cccc(Nc2ncnc3ccc(NC(=O)CCl)cc23)c1" in this test
OUTPUT: 1 (yes)

====

Please go through the items and note down their TGI.
tested on: UO-31 renal; assay: NCI tumour cell line growth inhibition, 48 h

INPUT: Any idea what TGI was measured for "CCc1nc(N)nc(N)c1-c1ccc(NCCc2ccccc2)c([N+](=O)[O-])c1" ?
OUTPUT: > 51.4 µM

INPUT: Reported TGI, molecule "O=C(O)c1oc(C(=O)O)c(C(=O)O)c1C(=O)O" : ____
OUTPUT: > 100 µM

INPUT: For O=C=NCCCCCCN1C(=O)N2C(c3ccccc3)N(CCCCCCN=C=O)C(=O)N2C1c1ccccc1 (centres undefined) , what is its reported TGI?
OUTPUT: > 100 µM

INPUT: Would you mind telling me what TGI value was observed for Cc1ccc(S(=O)(=O)N2CCCC2C(=O)O[C@H]2CC[C@H]3CC=C[C@H]32)cc1 (some centres undefined) ?
OUTPUT: > 100 µM

INPUT: Request the reported TGI associated with "Nc1nnc(Cn2c(-c3ccccc3)nc3ccc(Br)cc3c2=O)s1"
OUTPUT: > 100 µM

INPUT: Please give the measured TGI for this molecule: "COc1ccc(Cn2cc3c(c2-c2cc(OC)c(OC)c(OC)c2)CCc2cnoc2-3)cc1[N+](=O)[O-]"
OUTPUT: > 100 µM

INPUT: Which TGI is listed for "O=C1C(Cl)=C(Nc2cccc(O)c2)C(=O)N1c1ccccc1Cl" ?
OUTPUT: > 100 µM

INPUT: Could you share which TGI value was measured for "C=C1C(=O)O[C@H]2[C@H]1CC(=O)/C(C)=C/CC[C@@]1(C)O[C@@H]21" ?
OUTPUT: 2.29 µM

INPUT: Find the recorded TGI belonging to "CCCCCC/C=C\CCCCCCCCCC1=CC(=O)C=C(OC)C1=O" and report it.
OUTPUT: 14 µM

INPUT: # TGI lookup, item Cn1c2c(c3ccccc31)CC(=S)N1CCCC(CC2O)C1 (centres undefined)
OUTPUT: > 100 µM

INPUT: Looking for the measured TGI of "COc1ccc(-c2cc(=O)c3c(O)cc(C)cc3o2)cc1OC" , can you help?
OUTPUT: > 100 µM

INPUT: State the recorded TGI for this entry: "O=C(NNC(=O)c1cc(/C=C/c2cccc([N+](=O)[O-])c2)[nH]c(=S)n1)Nc1ccc(Cl)cc1"
OUTPUT: > 100 µM

INPUT: GET /values?readout=TGI&item= O=C(CC(=O)C1CCOC1=O)C(=O)Nc1ccc(Cl)cc1Cl (centres undefined)
OUTPUT: > 100 µM

INPUT: Item under review: "CC1(C)CC(=O)c2c(nc(SSc3nc4c(c(-c5ccccc5)c3C#N)C(=O)CC(C)(C)C4)c(C#N)c2-c2ccccc2)C1" . Reported TGI?
OUTPUT: > 10 µM

INPUT: # get_value(readout='TGI', item= "O=C([O-])c1ccc(C(=O)[O-])cc1.O=C([O-])c1ccc(C(=O)[O-])cc1.[Mo+2].[Mo+2]" )
OUTPUT: > 100 µM

INPUT: I am curious: what TGI value has been reported for COc1ccc(C2SC(C)C(=O)N2c2nc(-c3nc(-c4ccc(Cl)cc4)cs3)cs2)cc1 (centres undefined) ?
OUTPUT: > 100 µM

INPUT: For the molecule "Cn1c(=S)c2[nH]c(SCCN3CCCC3)nc2n(C)c1=O" , what TGI is on record?
OUTPUT: > 100 µM

INPUT: Give its TGI value. Item: C=C(C)[C@@H]1CC[C@]2(COC3CCCCO3)CC[C@]3(C)[C@H](CC[C@@H]4[C@@]5(C)C=C(C=O)C(=O)C(C)(C)[C@@H]5CC[C@]43C)[C@@H]12 (some centres undefined)
OUTPUT: 2.74 µM

INPUT: Value lookup for TGI; key = "O=C1/C(=C/c2ccccc2)CN(C(=O)OCc2ccccc2)C/C1=C\c1ccccc1"
OUTPUT: 24 µM
